Reported values of pIC50 for individual entries
target: H1047R PIK3CA enzyme (Homo sapiens, UniProt P42336, H1047R); test: ADP-Glo Biochemical PIK3CA Kinase Assay
Sequence (P42336 whole entry H1047R): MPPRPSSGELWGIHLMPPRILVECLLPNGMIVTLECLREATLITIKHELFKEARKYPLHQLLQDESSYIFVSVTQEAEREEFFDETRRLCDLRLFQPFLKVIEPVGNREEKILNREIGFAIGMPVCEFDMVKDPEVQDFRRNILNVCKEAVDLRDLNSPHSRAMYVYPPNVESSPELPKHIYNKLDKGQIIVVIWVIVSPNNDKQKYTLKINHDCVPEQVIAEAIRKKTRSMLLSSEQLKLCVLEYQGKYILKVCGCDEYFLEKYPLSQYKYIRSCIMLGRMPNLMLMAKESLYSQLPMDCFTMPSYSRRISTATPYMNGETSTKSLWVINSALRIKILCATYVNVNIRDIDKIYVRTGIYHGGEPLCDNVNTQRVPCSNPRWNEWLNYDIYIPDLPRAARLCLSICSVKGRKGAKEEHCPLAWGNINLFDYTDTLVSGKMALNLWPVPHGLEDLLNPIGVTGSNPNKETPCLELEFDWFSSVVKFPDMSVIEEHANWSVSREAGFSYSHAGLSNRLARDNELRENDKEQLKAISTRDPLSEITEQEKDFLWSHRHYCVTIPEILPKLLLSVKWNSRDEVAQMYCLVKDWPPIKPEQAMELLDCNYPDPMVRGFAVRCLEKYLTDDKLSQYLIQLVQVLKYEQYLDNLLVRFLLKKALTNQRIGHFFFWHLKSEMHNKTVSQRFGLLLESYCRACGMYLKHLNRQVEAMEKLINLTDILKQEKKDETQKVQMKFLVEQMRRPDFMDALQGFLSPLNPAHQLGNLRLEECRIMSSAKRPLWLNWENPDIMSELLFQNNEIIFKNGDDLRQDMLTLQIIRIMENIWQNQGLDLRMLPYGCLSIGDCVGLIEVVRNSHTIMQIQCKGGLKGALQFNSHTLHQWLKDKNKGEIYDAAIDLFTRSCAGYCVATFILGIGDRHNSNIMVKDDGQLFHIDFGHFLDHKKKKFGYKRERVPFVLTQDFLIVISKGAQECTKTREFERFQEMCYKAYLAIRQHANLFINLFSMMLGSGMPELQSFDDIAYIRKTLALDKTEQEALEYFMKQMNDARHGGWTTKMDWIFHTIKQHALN
Sequence (P27986 whole entry partner): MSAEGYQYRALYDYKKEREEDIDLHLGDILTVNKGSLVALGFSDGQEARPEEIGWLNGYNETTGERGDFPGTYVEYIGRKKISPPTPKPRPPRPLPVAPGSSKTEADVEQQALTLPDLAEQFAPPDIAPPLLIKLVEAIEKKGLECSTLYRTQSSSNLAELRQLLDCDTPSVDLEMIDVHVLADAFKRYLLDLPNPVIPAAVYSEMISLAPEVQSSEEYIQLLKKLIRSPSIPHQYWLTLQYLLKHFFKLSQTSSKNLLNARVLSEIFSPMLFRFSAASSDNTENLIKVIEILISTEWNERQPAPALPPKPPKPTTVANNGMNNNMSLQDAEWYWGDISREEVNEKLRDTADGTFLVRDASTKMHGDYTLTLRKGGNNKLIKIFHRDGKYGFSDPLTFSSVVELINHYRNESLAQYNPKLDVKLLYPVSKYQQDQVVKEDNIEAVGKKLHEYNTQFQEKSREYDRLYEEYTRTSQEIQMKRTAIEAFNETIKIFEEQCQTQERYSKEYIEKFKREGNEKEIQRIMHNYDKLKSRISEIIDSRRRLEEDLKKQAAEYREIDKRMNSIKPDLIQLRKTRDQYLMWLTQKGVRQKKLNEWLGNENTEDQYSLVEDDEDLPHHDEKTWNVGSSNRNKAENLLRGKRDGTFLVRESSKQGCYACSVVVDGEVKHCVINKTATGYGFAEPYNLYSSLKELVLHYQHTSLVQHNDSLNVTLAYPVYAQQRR
pIC50: −log10 of the molar value.
measure: pIC50

{"columns": ["molecule", "measure", "reading"],
 "data": [
  ["Cc1ccccc1C1NC(=O)c2cccc(NC(=O)c3coc4c(F)cc(F)cc34)c21 (stereo not shown) [Compound I-58]", "pIC50", "6.30 to 7.00"],
  ["O=C(Nc1cc(N2CCC2)nc2c1C(c1cc(F)ccc1Cl)NC2=O)c1cc(F)cc(C(F)(F)F)c1 (stereo not shown) [Compound I-441]", "pIC50", "≥ 7.00"],
  ["O=C1NC(c2cc(F)ccc2Cl)c2c(Nc3ncc(C(F)(F)F)cc3F)cc(Br)cc21 (stereo not shown) [Compound I-1118]", "pIC50", "6.00 to 6.30"],
  ["O=C(Nc1cc(-c2cccn3nccc23)cc2c1C(c1cc(F)ccc1Cl)NC2=O)c1cc(F)cc(C(F)(F)F)c1 (stereo not shown) [Compound I-983]", "pIC50", "≥ 7.00"],
  ["CC(C)(C)N[C@H]1NC(=O)c2cccc(NC(=O)c3cc(F)cc(C(F)(F)F)c3)c21 (single isomer, unassigned) [Compound I-2248]", "pIC50", "4.00 to 5.00"],
  ["O=C(Nc1cc(-c2cn3ncnc3cc2F)cc2c1[C@@H](c1cc(F)ccc1Cl)NC2=O)c1cc(F)cc(C(F)(F)F)c1 (stereo in doubt) [Compound I-1701]", "pIC50", "5.00 to 6.00"],
  ["CC(=O)N1CCC(C(=O)Nc2cc(-c3ccc4ncnn4c3)cc3c2C(c2cc(F)ccc2Cl)NC3=O)CC1 (stereo not shown) [Compound I-1744]", "pIC50", "4.00 to 5.00"],
  ["CC(C)(CN)n1cc(-c2cc(NC(=O)N3C[C@@](O)(C(F)(F)F)c4cc(F)ccc43)c3c(c2)C(=O)N[C@@H]3c2cc(F)ccc2Cl)cn1 (single isomer, unassigned) [Compound I-2649]", "pIC50", "≥ 7.00"],
  ["N#Cc1ccc(C(F)(F)F)c(NC(=O)Nc2cc(Br)cc3c2C(c2cc(F)ccc2Cl)NC3=O)c1 (stereo not shown) [Compound I-1051]", "pIC50", "5.00 to 6.00"],
  ["NS(=O)(=O)c1cc(-c2ccc3ncnn3c2)cc2c1C(c1cc(F)ccc1Cl)NC2=O (stereo not shown) [Compound I-1970]", "pIC50", "4.00 to 5.00"],
  ["O=C1NC(c2cc(F)ccc2Cl)c2c(NC(=O)C3CCCc4ccccc4C3)cccc21 (mixture of isomers) [Compound I-2375]", "pIC50", "4.00 to 5.00"],
  ["O=C(Nc1cc(CS(=O)(=O)c2ccncc2)cc2c1C(c1cc(F)ccc1Cl)NC2=O)c1cc(F)cc(C(F)(F)F)c1 (stereo not shown) [Compound I-1495]", "pIC50", "≥ 7.00"],
  ["O=C1NC(c2cc(F)ccc2Cl)c2c(NC(=O)N3C[C@@H](O)[C@@H](O)C3)cc(-c3ccc4ncnn4c3)cc21 (stereo partly shown) [Compound I-1965]", "pIC50", "4.00 to 5.00"]
]}

----------
Reported values of IC50 for individual entries
assay: cells; settings: Homo sapiens, MCF-10A, read-out: MCF10A IC50
measure: IC50

{"columns": ["compound", "measure", "reading"],
 "data": [
  ["O=C(Nc1cc(Br)cc2c1C(c1cc(F)ccc1C(F)(F)F)NC2=O)c1cc(F)cc(C(F)(F)F)c1 (stereo not drawn)", "IC50", "< 1000 nM"],
  ["O=C1N[C@@H](c2cc(F)ccc2Cl)c2c(NC(=O)N3C[C@H](O)c4cc(F)ccc43)cc(-n3ccccc3=O)cc21 (single isomer, unassigned)", "IC50", "5000 to 10000 nM"],
  ["Cn1nc(-c2cc(NC(=O)c3cc(F)cc(C(F)(F)F)c3)c3c(c2)C(=O)NC3c2cc(F)ccc2Cl)ccc1=O (stereo not drawn)", "IC50", "< 1000 nM"],
  ["NCc1cc(NC(=O)N2C[C@@](O)(C(F)F)c3cc(F)ccc32)c2c(c1)C(=O)N[C@@H]2c1cc(F)ccc1Cl (single isomer, unassigned)", "IC50", "1000 to 5000 nM"],
  ["O=C(Nc1cc(-c2ccc3c(c2)OCCO3)cc2c1C(c1cc(F)ccc1Cl)NC2=O)c1cc(F)cc(C(F)(F)F)c1 (stereo not drawn)", "IC50", "1000 to 5000 nM"],
  ["O=C1N[C@@H](c2cc(F)ccc2Cl)c2c(NC(=O)N3CCc4cc(F)ccc43)cc(-c3cnn(C(F)F)c3)cc21 (single isomer, unassigned)", "IC50", "< 1000 nM"],
  ["O=C1N[C@@H](c2cc(F)ccc2Cl)c2c(NC(=O)N3C[C@@H](O)c4cc(F)ccc43)cc(-c3cnn(C(F)F)c3)cc21 (single isomer, unassigned)", "IC50", "< 1000 nM"],
  ["N#Cc1cnccc1-c1cc(NC(=O)c2cc(F)cc(C(F)(F)F)c2)c2c(c1)C(=O)NC2c1cc(F)ccc1Cl (stereo not drawn)", "IC50", "< 1000 nM"],
  ["O=C(Nc1cc(-c2cccc3ncccc23)cc2c1C(c1cc(F)ccc1Cl)NC2=O)c1cc(F)cc(C(F)(F)F)c1 (stereo not drawn)", "IC50", "< 1000 nM"],
  ["O=C(Nc1cc(C2CC(O)C2)cc2c1C(c1cc(F)ccc1Cl)NC2=O)c1cc(F)cc(C(F)(F)F)c1 (stereo not drawn)", "IC50", "< 1000 nM"],
  ["O=C1N[C@@H](c2cc(F)ccc2Cl)c2c(NC(=O)N3C[C@H](O)c4cc(F)ccc43)cc(-n3cccn3)cc21 (single isomer, unassigned)", "IC50", "1000 to 5000 nM"],
  ["O=C(Nc1cc(-c2cnc3ncnn3c2)cc2c1[C@H](c1cc(F)ccc1Cl)NC2=O)c1cc(F)cc(C(F)(F)F)c1", "IC50", "< 1000 nM"],
  ["NC(=O)c1nc(-c2cc(NC(=O)c3cc(F)cc(C(F)(F)F)c3)c3c(c2)C(=O)NC3c2cc(F)ccc2Cl)cs1 (stereo not drawn)", "IC50", "< 1000 nM"],
  ["O=C1NC(c2cc(F)ccc2Cl)c2c(NC(=O)N3CC(O)c4cc(F)ccc43)cc(-c3cnn(C(F)F)c3)cc21 (stereo not drawn)", "IC50", "1000 to 5000 nM"],
  ["[2H][C@@]1(c2cc(F)ccc2Cl)NC(=O)c2cccc(NC(=O)N3C[C@@](O)(C(F)(F)F)c4cc(F)ccc43)c21 (single isomer, unassigned)", "IC50", "< 1000 nM"],
  ["N#Cc1cnn(Cc2cc(NC(=O)N3C[C@](O)(C(F)(F)F)c4cc(F)ccc43)c3c(c2)C(=O)N[C@@H]3c2cc(F)ccc2Cl)c1 (single isomer, unassigned)", "IC50", "< 1000 nM"],
  ["O=C(Nc1cc(NC2=NC3(CO2)CC(F)(F)C3)cc2c1C(c1cc(F)ccc1Cl)NC2=O)c1cc(F)cc(C(F)(F)F)c1 (stereo not drawn)", "IC50", "5000 to 10000 nM"],
  ["O=C1NC(c2cc(F)ccc2Cl)c2c(NC(=O)C34CC5CC(C3)CC(C(F)(F)F)(C5)C4)cccc21 (stereo not drawn)", "IC50", "< 1000 nM"],
  ["Cc1ccccc1C1NC(=O)c2cc(NC(C)C)cc(NC(=O)c3csc4ccccc34)c21 (stereo not drawn)", "IC50", "< 1000 nM"],
  ["O=C(Nc1cc(-c2ccc3ncccc3c2)cc2c1[C@H](c1cc(F)ccc1Cl)NC2=O)c1cc(F)cc(C(F)(F)F)c1", "IC50", "< 1000 nM"],
  ["O=C(Nc1cc(NC2=N[C@@H](C(F)(F)F)CO2)cc2c1[C@H](c1cc(F)ccc1Cl)NC2=O)c1cc(F)cc(C(F)(F)F)c1 (single isomer, unassigned)", "IC50", "1000 to 5000 nM"],
  ["CN(C)c1cc(NC(=O)N2C[C@](O)(C(F)(F)F)c3cc(F)ccc32)c2c(n1)C(=O)N[C@H]2c1cc(F)ccc1Cl (single isomer, unassigned)", "IC50", "< 1000 nM"],
  ["Nc1cc(NC(=O)N2C[C@@H](O)c3ccccc32)c2c(c1)C(=O)N[C@H]2c1cc(F)ccc1Cl (single isomer, unassigned)", "IC50", "< 1000 nM"],
  ["CS(=O)(=O)Nc1cc(NC(=O)c2cc(F)cc(C(F)(F)F)c2)c2c(c1)C(=O)NC2c1cc(F)ccc1Cl (stereo not drawn)", "IC50", "< 1000 nM"]
]}
